test system: KB; experiment: Cytotoxicity against human KB cells; assay type: functional, cell-based; details: Homo sapiens, KB; read-out: ED50 (the source's name)
Parameter: EC50. Scope: all listed entries.
Give the quantity in µg/mL, number only.

molecule	target.desc	EC50 [µg/mL]
CC(C)C(C)/C=C/C(C)[C@H]1CC[C@@H]2[C@]1(C)CC[C@H]1[C@]23C=C[C@]2(C[C@@H](O)CC[C@]12C)OO3 (stereo not given in full)	KB	9.97
C=C(C)[C@@H](CC)CC[C@@H](C)[C@H]1CC[C@@H]2[C@@H]1CC[C@H]1[C@H]2[C@@H](OO)C=C2C[C@@H](O)CC[C@@]21C	KB	1
C=C(C)[C@@H](CC)CC[C@@H](C)[C@H]1CC[C@H]2[C@@H]3C=C[C@@]4(OO)C[C@@H](O)CC[C@]4(C)[C@H]3CC[C@@H]21	KB	1

Summary: C=CC(CC[C@@H](C)[C@H]1CC[C@H]2[C@@H]3C[C@@H](O)C4=CC(=O)CC[C@]4(C)[C@H]3CC[C@]12C)(OO)C(C)C (stereo not given in full) , KB, EC50 = 1.8

====

Reported EC50 values are given for each entry in this list.
assay: Cytotoxicity against human […] cells; assay type: functional; conditions: read-out: ED50 (the source's name)
Give the value, in units of µg/mL, as a plain number.

Please review the entries below; each comes with its answer.
molecule	EC50, µg/mL
CC(C)/C(=C\COO)CC[C@@H](C)[C@H]1CC[C@@H]2[C@@H]1CC[C@H]1[C@H]2CC=C2C[C@@H](O)CC[C@@]21C	5
C=CC(C[C@@H](C)[C@H]1CC[C@H]2[C@@H]3CC=C4C[C@@H](O)CC[C@]4(C)[C@H]3CC[C@]12C)(OO)C(C)C (some centres undefined)	5.9
C=C(C)[C@@H](CC)CC[C@@H](C)[C@H]1CC[C@H]2[C@@H]3C=C[C@@]4(OO)C[C@@H](O)CC[C@]4(C)[C@H]3CC[C@@H]21	0.9

As a next step, examine the molecule that follows.
Reported EC50 of C=C(C)[C@@H](CC)CC[C@@H](C)[C@H]1CC[C@@H]2[C@@H]1CC[C@H]1[C@H]2[C@@H](OO)C=C2C[C@@H](O)CC[C@@]21C : 1

====

Catalogue of IC80 values
assay: Cytotoxicity against mouse Ehrlich Ascites carcinoma by trypan blue exclusion assay; assay type: functional

Take a look at these entries with their results.
structure.string	IC80
CC(=O)[C@@H]1CC[C@@H](C)[C@@H]2CC[C@]3(C)OO[C@@]12C(=O)O3	> 175 µM
C[C@@H]1CC[C@@H]2[C@]34OO[C@@](C)(CC[C@@H]13)O[C@H]4OC(=O)[C@@]2(C)O	> 125 µM

Recorded result, CO[C@H]1O[C@@H]2O[C@@]3(C)CC[C@H]4[C@H](C)CC[C@@H]([C@H]1C)[C@@]24OO3 , IC80: > 125 µM

====

tested on: BT-549; assay: Cytotoxicity against human BT549 cells by soft agar assay; assay type: functional
GI50: recorded values

molecule	GI50
CC1=C(CC/C(C)=C/CC[C@@]2(C)CC[C@@H]([C@H](C)C(=O)O)OO2)C(C)(C)CCC1 [EPIMUQUBILIN A]	> 5 µM

Value of GI50 reported for the molecule C=C1CCCC(C)(C)C1(O)CC/C(C)=C/CC[C@]1(C)CC[C@H]([C@@H](C)C(=O)OC)OO1 (stereo partly drawn) [EPIMUQUBILIN B] is > 5 µM

get_value(item= C=C1CCCC(C)(C)C1CC[C@]1(C)CC[C@@H]([C@@H](C)C(=O)O)OO1 (stereo partly drawn) [EPINUAPAPUIN B] , readout=GI50) returns > 5 µM

Data origin: ChEMBL document CHEMBL1149799
